Recorded values, source PubChem BioAssay (NCI).

- System: UACC-257 melanoma
- assayProcedure: NCI tumour cell line growth inhibition, 48 h; in the data active = GI50 below about 0.43 µM; inactive = the rest
Outcomes: TRUE for active, FALSE for inactive

{"molecule": "COC(=O)Nc1nc2ccc(Oc3ccc(NC(=O)Nc4ccccc4)cc3)cc2[nH]1", "assignedLabel": "TRUE"}
{"molecule": "COc1ccc(C(=O)c2cc(C)c(OC)c(C)c2)c(OC)c1N(C(=O)C(Cl)Cl)C(=O)C(Cl)Cl", "assignedLabel": "FALSE"}
{"molecule": "COc1ccc(C(=O)COc2cccc(/C=C3\\COc4ccc5ccccc5c4C3=O)c2)cc1", "assignedLabel": "FALSE"}
{"molecule": "Nc1ncc(-c2cnn(CCO)c2)c2scc(-c3ccc(NC(=O)Nc4cccc(F)c4)cc3)c12", "assignedLabel": "TRUE"}
{"molecule": "CC1CN1CC(O)C(O)CN1CC1C (stereo not drawn)", "assignedLabel": "FALSE"}
{"molecule": "NCCCC[C@@H]1NC(=O)[C@H]2CCCN2C(=O)[C@H](Cc2ccccc2)NC(=O)[C@H](Cc2ccccc2)CNC1=O", "assignedLabel": "FALSE"}
{"molecule": "CCN(CC)c1sc(N(CC)CC)c2c1SSSSS2", "assignedLabel": "FALSE"}
{"molecule": "Cc1cn2c(/C=C3/C(=O)N(C)c4ccccc43)c(C)nc2s1", "assignedLabel": "FALSE"}
